# target_entity: Alpha-2C adrenergic receptor (Homo sapiens)
# experiment_notes: compounds altering alpha2C-coupled GIRK flux – cell-based, HEK293 alpha2C/GIRK1/2, thallium flux, primary screen (AID 624);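 further: slope of fluorescence ratio to pre-addition baseline per second over 15 to 24 s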
# conditions_used: thallium flux BTC fluorescence, at 10 µM, actives lie on both sides
Readings of slope for the listed compounds
Give only the figure.

For orientation, consider the following solved cases.
>>> measured_number("CC1CCN(S(=O)(=O)c2ccc(Br)s2)CC1")
0.00656
>>> measured_number("CN1CCN(C(=O)C2(NC(=O)Nc3cccc(F)c3)CCCCC2)CC1")
0.00664
>>> measured_number("CCOCC(=O)Nc1ccc(S(=O)(=O)N2CCOCC2)cc1")
0.00604

Note to self: slope recorded for Cc1cc(C)c(NC(=O)CSc2nc3c(c(=O)n2C)SC(C)C3)c(C)c1 (stereo not drawn) was 0.00653

Measured slope, C(=N\n1cnnc1)/c1cccc(OCCOc2ccccc2)c1 : 0.00586

Summary for this compound, CCOc1ccc(NC(=O)COC(=O)Cn2cnnn2)cc1OCC : slope is 0.00481

get_value(item= Cn1c(CSc2nc3ccccc3s2)nnc1SCC(=O)NCCN1CCOCC1 , readout=slope) returns 0.00477

Value of measured slope for the entry COc1ccc(CCN2C(=O)CC(N3CCN(S(=O)(=O)c4ccccc4)CC3)C2=O)cc1 (stereo not drawn) : 0.0045

----------
# experiment_notes: endothelial E-selectin expression blockers – imaging, HUVEC, immunofluorescence, MLSMR starter and 10KST1 sets, primary screen (AID 487);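 further: signal is fraction of cell area covered by stained E-selectin grains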
# conditions_used: HUVEC TNFalpha-induced E-selectin immunofluorescence imaging, at 2 µM; stronger effect = higher value
Quick reference for inhibition among some compounds
Number only, in %; omit the unit.

Reference set, count: 2
>>> measured_number("Cc1c[nH]c2cccc(OCC(O)CNC(C)(C)C)c12 (configuration not stated)")
-4.9
>>> measured_number("Cc1onc(-c2ccccc2Cl)c1C(=O)Nc1cnn(Cc2ccccc2)c1")
15.1

Per the record, C=CCSc1nnc(-c2ccc(Cl)cc2Cl)o1 has inhibition of 14.7

The compound identified as COc1ccc2c(-c3cccnc3)cc(=O)[nH]c2c1 registered its inhibition at 36.3

// inhibition lookup, compound = O=C(CN(Cc1ccc(F)cc1)C(=O)Cn1nnc2ccccc21)NCC1CCCO1 (configuration not stated) , result: -33

Just so you know, measured inhibition for CC1Cc2ccccc2N1C(=O)c1cnsn1 (configuration not stated) came out at -138

GET /value?item= CC(C)CC(c1nnnn1C(C)(C)C)N1CCN(C2CCCC2)CC1 (configuration not stated) &field=inhibition returns -5.6

----------
# experiment_notes: reduction of polyQ htt aggregates in cells – imaging, exon1htt(103Q)mCFP cells, high-content imaging, primary screen (AID 483);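 further: compound exposure lasted 3 days before fixation; percent of the per-plate median nuclei count of sample wells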
# conditions_used: exon1htt(103Q)mCFP cell line, aggregate imaging, at 2 µM; measured here: cell count, toxicity
Simple rule here: nuclei count less than 90% is t, otherwise f.

Use these answered entries as a reference point.
>>> label("O=C(CCN1CCN(C(=O)c2ccco2)CC1)Nc1ccc(F)cc1")
"t"
>>> label("CC(NC(=O)NC12CC3CC(CC(C3)C1)C2)C1CCCO1 (stereo unspecified)")
"t"
>>> label("CCn1nnnc1SCC(=O)Nc1nc(-c2cccs2)cs1")
"f"
>>> label("CCOc1ccc(S(=O)(=O)n2c(C)nc3ccccc32)cc1")
"f"
>>> label("COc1ccc(-c2cn3c(C)c(C(=O)Nc4cc(NC(C)=O)ccc4OC)sc3n2)cc1")
"t"
>>> label("CN1CCN(C(=O)CCC(=O)c2ccc(F)cc2)CC1")
"f"
>>> label("CC1=NC(Nc2nc(C)c3ccccc3n2)=NC(C)(C)C1")
"f"

Now examine the next entry.
Exercise: Please let me know if COC(=O)C1C(=O)C2=C(CC1C)NC(=O)CC2c1ccccc1 (stereo unspecified) shows nuclei count below 90%.
Key: f
